# experimental.target: CDK4 (Homo sapiens, UniProt P11802)
# Construct: endogenous in cells
# Sequence (P11802 whole entry): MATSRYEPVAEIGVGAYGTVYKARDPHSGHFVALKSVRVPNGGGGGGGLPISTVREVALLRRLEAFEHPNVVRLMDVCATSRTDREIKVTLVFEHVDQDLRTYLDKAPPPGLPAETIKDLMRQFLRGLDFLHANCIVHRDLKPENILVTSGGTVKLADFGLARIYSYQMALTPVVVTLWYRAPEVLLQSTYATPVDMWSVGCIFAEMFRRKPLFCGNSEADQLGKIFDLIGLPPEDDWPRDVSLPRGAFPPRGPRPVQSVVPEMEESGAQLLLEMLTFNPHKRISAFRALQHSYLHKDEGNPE
# protocol.description: CDK4 degradation (DC50, Dmax)
# Assay type: cell-based
value.type: DC50

Field: example entries. Status: answers known.
Cc1nc2c(F)cc(-c3nc(Nc4ccc(CC5CCN(C(=O)C6CCN(c7ccc8c(c7)C(=O)N(C7CCC(=O)NC7=O)C8=O)CC6)CC5)cn4)ncc3F)cc2n1C(C)C (stereo not drawn) [Compound 161] :: 50 to 200 nM
CC(=O)c1c(C)c2cnc(Nc3ccc(N4CCN(C(=O)N5CCC(CCN6CCC(c7ccc8c(c7)CN(C7CCC(=O)NC7=O)C8=O)CC6)CC5)CC4)cn3)nc2n(C2CCCC2)c1=O (stereo not drawn) [Compound 30] :: > 200 nM

Item under review: CC(=O)c1c(C)c2cnc(Nc3ccc(N4CCN(CCN5CCC(c6ccc7c(c6)CN(C6CCC(=O)NC6=O)C7=O)CC5)CC4)cn3)nc2n(C2CCCC2)c1=O (stereo not drawn) [Compound 72] . Reported DC50?
50 to 200 nM

---

# experimental.target: CDK6 (Homo sapiens, UniProt Q00534)
# Construct: endogenous in cells
# Sequence (Q00534 whole entry): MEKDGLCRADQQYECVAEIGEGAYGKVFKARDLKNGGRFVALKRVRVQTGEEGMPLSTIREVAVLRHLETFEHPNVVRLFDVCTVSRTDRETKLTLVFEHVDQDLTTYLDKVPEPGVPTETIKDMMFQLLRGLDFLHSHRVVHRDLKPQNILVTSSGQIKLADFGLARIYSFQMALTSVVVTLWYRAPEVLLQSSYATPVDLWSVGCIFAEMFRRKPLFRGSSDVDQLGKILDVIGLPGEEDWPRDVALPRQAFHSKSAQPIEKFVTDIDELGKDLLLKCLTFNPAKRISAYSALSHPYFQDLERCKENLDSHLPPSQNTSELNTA
# protocol.description: CDK6 degradation (DC50, Dmax)
# Assay type: cell-based
value.type: DC50

So what does the record say about DC50 for Cc1nc2c(F)cc(-c3nc(Nc4ccc(CN5CCN(CC6CCN(c7ccc(N8CCC(=O)NC8=O)cc7)CC6)CC5)cn4)ncc3F)cc2n1C(C)C ?
< 50 nM

Find the recorded DC50 belonging to CC(=O)c1c(C)c2cnc(Nc3ccc(N4CCN(C(=O)C5CN(c6ccc(C(=O)NC7CCC(=O)NC7=O)cc6)C5)CC4)cn3)nc2n(C2CCCC2)c1=O (stereo not shown) and report it.
< 50 nM

Which value of DC50 has been reported for CC(=O)c1c(C)c2cnc(Nc3ccc(N4CCN(CCC5CCN(C(=O)Nc6ccc7c(c6)C(=O)N(C6CCC(=O)NC6=O)C7=O)CC5)CC4)cn3)nc2n(C2CCCC2)c1=O (stereo not shown) in the records?
50 to 200 nM

Requested field: DC50. Item: CC(=O)c1c(C)c2cnc(Nc3ccc(N4CCN(CC5CN(c6ccc7c(c6)C(=O)N(C6CCC(=O)NC6=O)C7=O)C5)CC4)cn3)nc2n(C2CCCC2)c1=O (stereo not shown)
< 50 nM

If you can, please state the reported DC50 value of CC(=O)c1c(C)c2cnc(Nc3ccc(N4CCN(C(=O)N5CCC(N6CCC(c7ccc8c(c7)C(=O)N(C7CCC(=O)NC7=O)C8=O)CC6)CC5)CC4)cn3)nc2n(C2CCCC2)c1=O (stereo not shown) .
50 to 200 nM

---

DC50 overview
# experimental.target: CDK6 (Homo sapiens)
# Construct: endogenous in cells
# protocol.description: CDK6 degradation (DC50, Dmax)
# Type: cell-based

Sample records with DC50:
Cc1nc2c(F)cc(-c3nc(Nc4ccc(CN5CCN(C6CCN(c7ccc(N8CCC(=O)NC8=O)cc7)CC6)CC5)cn4)ncc3F)cc2n1C(C)C :: < 50 nM
CC(=O)c1c(C)c2cnc(Nc3ccc(N4CCN(CCCN(C)c5ccc6c(c5)C(=O)N(C5CCC(=O)NC5=O)C6=O)CC4)cn3)nc2n(C2CCCC2)c1=O (stereo not drawn) :: 50 to 200 nM

Continue with the compound presented below.
Data request, read-out DC50, for Cc1nc2c(F)cc(-c3nc(Nc4ccc(CC5CCN(C(=O)C6CCN(c7ccc8c(c7)C(=O)N(C7CCC(=O)NC7=O)C8=O)CC6)CC5)cn4)ncc3F)cc2n1C(C)C (stereo not drawn)
> 200 nM
